- assay_name: Quantitative High-Throughput drug screen in 47 multiple myeloma cell lines against the NCATS MIPE library collection: UTMC2_PLB cell viability assay (AID 1919868); note: nearly all actives have a fitted effect of over 55% in size
- test_settings: CellTiter-Glo ATP luminescence, 48 h
- Source text: PI: Beverly A. Mock Ph.D. Laboratory of Cancer Biology and Genetics, Center for Cancer Research, National Cancer Institute, National Institute of Health, Bethesda, Maryland […] 5; Detector; 425V; Luminescence; Viewlux PerkinElmer. […] 1. […] Briefly, the corresponding myeloma cell lines were screened in 1,536-well plates with 500 cells, 5-uL per well for inhibition of cell viability (assessed by measuring ATP levels with CellTiterGlo). […]
Inconclusive results are not listed. The source made the active and inactive calls. Calls come from the whole dose curve; as a rule, active = well fitted cell-killing curve with a large enough effect; inconclusive = small, poorly fitted or top-dose-only effect, or effect the other way; inactive = no such curve, though single readings can be large or run the other way.
Labels: active, inactive

molecule	classification
Nc1nc(Cl)nc2c1ncn2[C@@H]1O[C@H](CO)[C@@H](O)[C@H]1F	active
CCCCCCCCCCCCCC(=O)N[C@H](CO)[C@H](O)c1ccc([N+](=O)[O-])cc1	active
CO[C@H]1C=CO[C@@]2(C)Oc3c(C)c(O)c4c(O)c(c(C=NN5CCN(C)CC5)c(O)c4c3C2=O)NC(=O)C(C)=CC=C[C@H](C)[C@H](O)[C@@H](C)[C@@H](O)[C@@H](C)[C@H](OC(C)=O)[C@H]1C	inactive
FC(F)(F)c1ccc(C=Cc2nc(COc3ccc(CCCCn4ccnn4)cc3)co2)cc1	active
Fc1ccc(C(c2ccc(F)cc2)N2CCN(CC=Cc3ccccc3)CC2)cc1	inactive
CCCCCOC(=O)Nc1nc(=O)n([C@@H]2O[C@H](C)[C@@H](O)C2O)cc1F (some centres not stated)	inactive
CN1CCC[C@H]1CCO[C@](C)(c1ccccc1)c1ccc(Cl)cc1	active
CCCCC[C@H](O)C=C[C@H]1[C@H](O)CC(=O)[C@H]1CC=CCCCC(=O)O	inactive
NC(=O)c1ccc(N(C(N)=O)c2c(F)cccc2F)nc1-c1ccc(F)cc1F	active
OC(c1cc(C(F)(F)F)nc2c(C(F)(F)F)cccc12)C1CCCCN1 (configuration not stated)	active
CC1CNc2c(cccc2S(=O)(=O)N[C@@H](CCCN=C(N)N)C(=O)N2CC[C@@H](C)C[C@@H]2C(=O)O)C1 (some centres not stated)	inactive
CN1CCN(c2ncc(-c3cc(Cl)cc(Cl)c3Cl)c(N)n2)CC1	inactive
C[C@@H]1C[C@H]2[C@@H]3CCC4=CC(=O)C=C[C@]4(C)[C@@]3(F)[C@@H](O)C[C@]2(C)[C@@]1(O)C(=O)CO	inactive
Cc1nc(C(=O)NCC(=O)O)c(O)c2ccc(Oc3ccccc3)cc12	inactive
CC[C@H](CC#N)OC(=O)N[C@@H](C)c1cccc(NC(=O)Nc2ccc(-c3cnco3)c(OC)c2)c1	active
Cc1c(-c2cccc3c(CCCOc4cccc5ccccc45)c(C(=O)O)n(Cc4cccnc4)c23)c(COc2ccc(N3CCN([S+](=O)([O-])N(C)C)CC3)cc2)nn1C	active
CN[C@@H]1CN(c2ccc3c(=O)c(C(=O)O)cn(-c4nccs4)c3n2)C[C@@H]1OC	active

====

- Test system: KB-3-1
- assay_name: Cytotoxic Profiling of Annotated Libraries Using Quantitative High-Throughput Screening (AID 1296008); note: nearly all actives have a fitted effect of over 60% in size; note: potency is the fitted concentration of half-maximal effect
- test_settings: Five cell lines viability, CellTiter-Glo ATP luminescence, 48-72 h
- Procedure: Cell-based phenotypic screening is a commonly used approach to discover biological pathways, novel drug targets, chemical probes and high-quality hit-to-lead molecules. […] A pintool (Kalypsys) was used to transfer 23 nL of compound solution to the 1536-well assay plates. […] Plates were left at room temperature for 10 min before imaging the ATP-coupled luminescence using a ViewLux microplate imager (PerkinElmer, Waltham, MA).
Results filed as inconclusive are left out. Calls of active or inactive are those of the source. Calls follow the shape of the dose curve; as a rule, active = well fitted inhibition curve with a large enough effect; inconclusive = small, poorly fitted or top-dose-only effect; inactive = flat fitted curve, though single readings scatter.

compound	Potency
Nc1[nH]nc2nnc(-c3c(-c4ccccc4)nn4ccccc34)cc12	inactive
COC(=O)[C@H](c1ccccc1Cl)N1CCc2sccc2C1	inactive
O=c1cc(-c2ccc(O)c(O)c2)oc2cc(O)cc(O)c12	inactive
NS(=O)(=O)c1ccc(Nc2nc(OCC3CCCCC3)c3[nH]cnc3n2)cc1	14.8 µM (active)
CCC(=O)OCC(=O)[C@@]1(OC(=O)CC)[C@@H](C)C[C@@H]2[C@H]3CCC4=CC(=O)C=C[C@]4(C)[C@@]3(F)[C@@H](O)C[C@@]21C	inactive
CN1CCN(c2cccc(Nc3nc4c(-c5ccc(S(C)(=O)=O)cc5)cccn4n3)c2)CC1	inactive
Cc1ccc2c(=O)c3cccc(CC(=O)O)c3oc2c1C	inactive
O=c1[nH]c(=O)n([C@H]2C[C@@H](O)[C@@H](CO)O2)cc1I	inactive
CC(=O)NCCC(=O)N[C@@H](CCC(N)=O)C(=O)N[C@@H](CO)C(=O)N[C@@H](CCC(N)=O)C(=O)N[C@@H](CCC(N)=O)C(=O)N[C@H](C(=O)N[C@@H](Cc1ccccc1)C(=O)N[C@]1(C)CCCCCCC=CCCC[C@@](C)(C(=O)N[C@@H](CCC(N)=O)C(=O)N[C@@H](CC(N)=O)C(N)=O)NC(=O)[C@H](CC(C)C)NC(=O)[C@H](CC(C)C)NC(=O)[C@@H](CCCNC(=N)N)NC(=O)[C@H](Cc2c[nH]c3ccccc23)NC(=O)[C@H](CC(C)C)NC(=O)[C@H](CC(N)=O)NC1=O)[C@H](C)O	inactive
CC[C@H](NC(=O)[C@H](C)NC)C(=O)N1C[C@@H](O)C[C@H]1Cc1c(-c2[nH]c3cc(F)ccc3c2C[C@H]2C[C@H](O)CN2C(=O)[C@H](CC)NC(=O)[C@H](C)NC)[nH]c2cc(F)ccc12	inactive
COc1cccc(OC)c1-c1cc(C(=O)NC2(C(=O)O)C3CC4CC(C3)CC2C4)nn1-c1ccnc2cc(Cl)ccc12 (stereo not drawn)	inactive
CN[C@H]1[C@@H](O[C@@H]2[C@H](O[C@@H]3[C@@H](O)[C@@H](O)[C@@H](N=C(N)N)[C@@H](O)[C@@H]3N=C(N)N)O[C@H](C)[C@@]2(O)C=O)O[C@@H](CO)[C@@H](O)[C@H]1O	inactive
C[C@@H](O[C@H]1OCCN(Cc2n[nH]c(=O)[nH]2)[C@@H]1c1ccc(F)cc1)c1cc(C(F)(F)F)cc(C(F)(F)F)c1	26.4 µM (active)
